Target: WRN C727 (Homo sapiens, UniProt Q14191)
Construct: endogenous in cells; host or cells: OCI-AML2
Sequence (Q14191 whole entry): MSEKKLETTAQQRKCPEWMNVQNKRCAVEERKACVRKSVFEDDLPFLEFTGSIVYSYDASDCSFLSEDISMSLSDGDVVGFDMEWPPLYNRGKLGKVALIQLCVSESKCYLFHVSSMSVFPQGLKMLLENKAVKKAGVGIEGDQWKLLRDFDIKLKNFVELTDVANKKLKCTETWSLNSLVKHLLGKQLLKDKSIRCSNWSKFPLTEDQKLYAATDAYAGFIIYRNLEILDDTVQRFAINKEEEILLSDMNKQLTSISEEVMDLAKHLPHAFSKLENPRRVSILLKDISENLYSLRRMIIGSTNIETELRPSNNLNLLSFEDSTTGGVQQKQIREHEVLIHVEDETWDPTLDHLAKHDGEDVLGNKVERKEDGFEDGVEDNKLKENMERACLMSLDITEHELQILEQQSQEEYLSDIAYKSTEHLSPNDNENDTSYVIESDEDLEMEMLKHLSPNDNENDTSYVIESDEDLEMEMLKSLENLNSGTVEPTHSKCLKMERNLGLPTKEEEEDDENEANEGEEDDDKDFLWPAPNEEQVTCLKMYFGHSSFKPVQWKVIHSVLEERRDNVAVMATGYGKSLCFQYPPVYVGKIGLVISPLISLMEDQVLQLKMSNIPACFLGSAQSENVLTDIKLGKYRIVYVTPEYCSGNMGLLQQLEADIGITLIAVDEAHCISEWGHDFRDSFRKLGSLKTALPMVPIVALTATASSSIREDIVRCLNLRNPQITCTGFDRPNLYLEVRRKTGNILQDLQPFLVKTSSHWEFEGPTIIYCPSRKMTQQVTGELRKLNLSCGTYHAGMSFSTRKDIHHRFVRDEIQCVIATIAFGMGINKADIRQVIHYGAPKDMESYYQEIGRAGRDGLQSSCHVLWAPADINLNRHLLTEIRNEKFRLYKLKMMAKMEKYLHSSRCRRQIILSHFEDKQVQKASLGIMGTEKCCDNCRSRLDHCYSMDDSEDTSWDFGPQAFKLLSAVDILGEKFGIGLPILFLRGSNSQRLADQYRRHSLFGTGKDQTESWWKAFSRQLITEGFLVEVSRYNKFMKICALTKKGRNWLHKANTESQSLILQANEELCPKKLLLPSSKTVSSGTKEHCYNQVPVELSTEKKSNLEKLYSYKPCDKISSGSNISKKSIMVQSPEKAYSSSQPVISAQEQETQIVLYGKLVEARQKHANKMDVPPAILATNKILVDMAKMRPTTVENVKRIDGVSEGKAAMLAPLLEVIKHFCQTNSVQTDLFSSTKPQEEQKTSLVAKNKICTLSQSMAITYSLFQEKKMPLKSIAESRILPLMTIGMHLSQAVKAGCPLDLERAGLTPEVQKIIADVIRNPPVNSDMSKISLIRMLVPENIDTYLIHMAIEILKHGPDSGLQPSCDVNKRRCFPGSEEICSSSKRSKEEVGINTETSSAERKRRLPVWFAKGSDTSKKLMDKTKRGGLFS
Assay: Target engagement, in vitro (lysate), OCI-AML2
Assay type: binding
Details: read-out: OCI-AML2 WRN C727 TE50 in vitro (lysate)
pIC50: −log10 of the molar value.
Lab note: anything with pIC50 at or over 6 counts as 1; the rest go in -1.

# COMPOUND, CLASS
records = [
    ("CO[C@H](C)[C@@H](/C=C/S(C)(=O)=O)NC(=O)c1cnc(C(C)(C)C)nc1Oc1ccccc1", -1),
    ("C[C@@H](/C=C/S(C)(=O)=O)NC(=O)c1cc(C#N)c(C2CCCC2)nc1Oc1ccccc1", -1),
]

Problem: Check if pIC50 >= 6 (inclusive). Item: `COC[C@@H](/C=C/S(C)(=O)=O)NC(=O)c1cnc(C(C)(C)C)nc1Oc1ccccc1`
Result: 1

Problem: Hi, just wondering whether CS(=O)(=O)/C=C/[C@H](Cc1ccccc1)NC(=O)c1cnc(C2CC2)nc1Oc1ccccc1 (single isomer, unassigned) shows pIC50 of 6 or higher.
Result: -1

Problem: Please tell me: is the compound `CS(=O)(=O)/C=C/CNC(=O)c1cnc(C2CCCC2)nc1Oc1cccc(Cl)c1` at or over 6 in terms of pIC50?
Result: -1

Problem: Please tell me: is the compound `C[C@@H](/C=C/S(C)(=O)=O)NC(=O)c1cnc(CC2CCCCC2)nc1Oc1ccccc1` at or over 6 in terms of pIC50?
Result: -1

Problem: Please check the record `CC(C)c1ncc(C(=O)N[C@H](/C=C/S(C)(=O)=O)C2CC2)c(Oc2ccccc2)n1` and state if its pIC50 is at or above 6.
Result: 1

----------
Molecular target: WRN C727 (Homo sapiens)
Construct: endogenous in cells; host or cells: OCI-AML2
Assay: Target engagement, in vitro (lysate), OCI-AML2
Format: binding
Details: read-out: OCI-AML2 WRN C727 TE50 in vitro (lysate)
Consider the cut-off 1 µM. If the recorded IC50 is strictly smaller, the label is 1.0; if not, the label is 0.0.

See these solved cases before continuing.
# SUBSTANCE_SMILES, CLASS
records = [
    ("C[C@@H](/C=C/S(C)(=O)=O)NC(=O)c1cnc(NC2CCCC2)nc1Oc1ccccc1", 0.0),
    ("CC(C)(C)c1ncc(C(=O)N[C@H](/C=C/S(C)(=O)=O)C2CC2)c(Oc2ccccc2)n1", 1.0),
    ("C[C@@H](/C=C/S(C)(=O)=O)NC(=O)c1cnc(C2CC3(CC3)C2)nc1Oc1ccccc1", 0.0),
    ("C[C@@H]1CC[C@H](C)N1c1ncc(C(=O)N[C@@H](C)/C=C/S(C)(=O)=O)c(Oc2ccccc2)n1", 0.0),
    ("C[C@@H](/C=C/S(C)(=O)=O)NC(=O)c1ncc(C2=CCCC2)nc1Oc1ccccc1", 0.0),
]

Next up:
Problem: Is it true that IC50 reported for `CS(=O)(=O)/C=C/[C@@H](NC(=O)c1cnc(N2CC(F)(F)C2)nc1Oc1ccccc1)C1CC1` is less than 1 µM?
Result: 0.0

----------
Overview of recorded IC50 for various compounds
Molecular target: hWRN(519-1227)_C-H3CV-GFP-10His (Homo sapiens)
Sequence (Q14191 519-1227): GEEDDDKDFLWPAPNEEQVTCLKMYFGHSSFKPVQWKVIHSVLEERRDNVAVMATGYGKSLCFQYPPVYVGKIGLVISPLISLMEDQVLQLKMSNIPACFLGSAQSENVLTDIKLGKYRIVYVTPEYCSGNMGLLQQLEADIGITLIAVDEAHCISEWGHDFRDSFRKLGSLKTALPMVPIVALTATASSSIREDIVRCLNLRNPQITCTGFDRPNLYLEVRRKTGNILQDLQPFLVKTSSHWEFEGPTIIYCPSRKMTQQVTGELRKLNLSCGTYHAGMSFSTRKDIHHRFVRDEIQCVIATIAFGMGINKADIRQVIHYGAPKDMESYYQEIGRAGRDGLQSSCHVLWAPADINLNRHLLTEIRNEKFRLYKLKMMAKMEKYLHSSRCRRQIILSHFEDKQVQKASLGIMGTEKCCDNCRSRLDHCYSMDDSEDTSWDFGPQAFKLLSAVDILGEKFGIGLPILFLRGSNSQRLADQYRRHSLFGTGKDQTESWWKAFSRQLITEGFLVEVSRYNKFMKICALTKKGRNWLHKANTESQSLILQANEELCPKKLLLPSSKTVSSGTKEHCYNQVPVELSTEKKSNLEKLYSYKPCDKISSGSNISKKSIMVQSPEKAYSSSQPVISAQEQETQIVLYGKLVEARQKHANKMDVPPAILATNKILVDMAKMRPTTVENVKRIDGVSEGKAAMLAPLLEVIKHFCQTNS
Test: Helicase Assay for WRN Inhibition (ATP-dependent, fluorescence based)
Settings: WRN Helicase IC50, 30 min preincubation with ATP, 30 min reaction
The figure you give is taken to be in µM; do not add the unit.

# COMPOUND, UOM, IC50
rows = [
    ("CC(C)(C)c1ncc(C(=O)N[C@H](/C=C/S(C)(=O)=O)Cc2ccccc2)c(Oc2ccccc2)n1 (single isomer, unassigned)", "µM", 0.41),
]

The compound `C[C@@H](/C=C/S(C)(=O)=O)NC(=O)c1cnc(C2CCCC2)nc1Oc1ccc(F)cc1` , tested on hWRN(519-1227)_C-H3CV-GFP-10His (Homo sapiens), showed IC50 of 1.8

So the reported IC50 for CS(=O)(=O)/C=C\[C@H](Cc1ccccc1)NC(=O)c1cnc(C2CC2)nc1Oc1ccccc1 (single isomer, unassigned) , on hWRN(519-1227)_C-H3CV-GFP-10His (Homo sapiens), turned out to be 6.1
